biological target: T1, human complement component C5 (human, UniProt P01031 19-673; P01031 678-1676); test: SPR multi-cycle kinetics, human C5 immobilised, mean of n=3
T1 construct: mature; Mature C5 is a disulphide-linked beta and alpha chain cut from one precursor; Terbium-labelled in the FRET assays, biotinylated in part of the phage ELISA; also called human C5; C5-Tb
T1 sequence (P01031 19-673 limits assumed, chain 1 of 2): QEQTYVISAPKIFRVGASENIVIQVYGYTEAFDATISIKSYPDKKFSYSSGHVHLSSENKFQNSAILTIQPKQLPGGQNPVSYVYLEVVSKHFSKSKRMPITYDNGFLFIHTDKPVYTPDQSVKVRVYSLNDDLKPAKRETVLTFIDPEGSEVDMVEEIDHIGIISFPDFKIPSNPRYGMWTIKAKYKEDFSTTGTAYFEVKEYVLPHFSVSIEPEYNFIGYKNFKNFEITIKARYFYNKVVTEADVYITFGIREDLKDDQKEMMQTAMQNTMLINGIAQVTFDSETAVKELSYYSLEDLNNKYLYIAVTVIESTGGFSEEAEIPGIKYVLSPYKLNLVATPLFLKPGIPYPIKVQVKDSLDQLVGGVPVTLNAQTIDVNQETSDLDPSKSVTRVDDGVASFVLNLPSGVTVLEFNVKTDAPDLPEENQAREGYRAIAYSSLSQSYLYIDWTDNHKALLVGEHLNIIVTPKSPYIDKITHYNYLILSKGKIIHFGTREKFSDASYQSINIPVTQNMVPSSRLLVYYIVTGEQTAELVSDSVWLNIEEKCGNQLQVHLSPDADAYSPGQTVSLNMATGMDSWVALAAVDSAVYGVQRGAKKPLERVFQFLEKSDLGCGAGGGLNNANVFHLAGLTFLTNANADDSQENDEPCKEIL
T1 sequence (P01031 678-1676 limits assumed, chain 2 of 2): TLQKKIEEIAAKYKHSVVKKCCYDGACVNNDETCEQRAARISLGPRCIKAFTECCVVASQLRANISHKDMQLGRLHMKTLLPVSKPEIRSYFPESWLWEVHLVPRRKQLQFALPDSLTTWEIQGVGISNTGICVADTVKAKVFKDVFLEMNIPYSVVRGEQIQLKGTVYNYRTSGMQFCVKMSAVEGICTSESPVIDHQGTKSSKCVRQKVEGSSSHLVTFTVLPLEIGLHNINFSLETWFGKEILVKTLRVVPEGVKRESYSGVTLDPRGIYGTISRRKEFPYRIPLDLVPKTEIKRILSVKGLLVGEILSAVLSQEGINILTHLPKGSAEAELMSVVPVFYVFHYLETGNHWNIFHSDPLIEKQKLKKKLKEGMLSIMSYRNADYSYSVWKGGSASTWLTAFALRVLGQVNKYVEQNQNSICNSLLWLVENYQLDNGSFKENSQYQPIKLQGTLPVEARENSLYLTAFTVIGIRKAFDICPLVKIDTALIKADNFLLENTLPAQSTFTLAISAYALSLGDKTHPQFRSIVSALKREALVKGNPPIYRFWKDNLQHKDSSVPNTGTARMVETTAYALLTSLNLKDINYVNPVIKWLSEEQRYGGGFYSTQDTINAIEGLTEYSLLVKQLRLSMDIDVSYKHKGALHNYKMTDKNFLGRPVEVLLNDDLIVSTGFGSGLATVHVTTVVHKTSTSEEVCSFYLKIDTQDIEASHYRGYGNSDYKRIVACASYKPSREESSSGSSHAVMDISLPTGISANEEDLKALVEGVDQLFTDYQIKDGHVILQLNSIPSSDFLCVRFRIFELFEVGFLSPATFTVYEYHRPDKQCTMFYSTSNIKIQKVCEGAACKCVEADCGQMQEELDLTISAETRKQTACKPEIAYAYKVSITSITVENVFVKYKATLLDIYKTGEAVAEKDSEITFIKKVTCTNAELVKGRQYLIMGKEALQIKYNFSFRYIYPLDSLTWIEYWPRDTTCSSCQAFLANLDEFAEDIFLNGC
outcome_measure: log10 Kd (log10 of the value in nM)
For clarity, the numbers are log10 values of Kd expressed in nM.

Some solved entries appear below for comparison.
>>> df
                                     binder  outcome_measure  value_reported
0  TCPEGWSECGVAIYGAECGRWGCGHFLNSGPNISPYVST [K92chemFE Y16A]         log10 Kd            2.34
1  TCPEGWSECGVAIYGYECGRAGCGHFLNSGPNISPYVST [K92chemFE W21A]         log10 Kd            2.70
2  TCPEGWSECGVAIYGYECGRWGCGHALNSGPNISPYVST [K92chemFE F26A]         log10 Kd            1.27
3  TCPEGASECGVAIYGYECGRWGCGHFLNSGPNISPYVST [K92chemFE W6A]         log10 Kd            2.34
4  TCPEGWSECGVAIAGYECGRWGCGHFLNSGPNISPYVST [K92chemFE Y14A]         log10 Kd            0.56

Quick one: log10 Kd of TCPEGWSECGVAIYGYECGRHGCGHFLNSGPNISPYVST [K92chemFE W21H] ?
0.17
